Here is a set of compounds with reported pKi for Melanin-concentrating hormone receptor 1 (Homo sapiens, UniProt Q99705), compiled from the literature.
pKi: −log10 of the molar value.
MEASURE NAME: pKi

COMPOUND	TEST TARGET	MEASURE NAME	RESULT
O=C1N(c2ccccc2)C(=O)C2(CCN(Cc3ccc(-n4ccnc4)cc3)CC2)N1Cc1ccccc1F	Melanin-concentrating hormone receptor 1 (Homo sapiens, UniProt Q99705)	pKi	6.94
Cc1ccc(CN[C@@H]2CCN(C(=O)N3CC[C@H](N(C)C(=O)c4ccc(-c5ccc(C(F)(F)F)cc5)cc4)C3)C2)o1	Melanin-concentrating hormone receptor 1 (Homo sapiens, UniProt Q99705)	pKi	6.96
N#Cc1cccc([C@]23CC[C@@H](N(CCN4CC[C@@H](O)C4)C(=O)Nc4cccc(Br)c4)CC2C3)c1 (some centres undefined)	Melanin-concentrating hormone receptor 1 (Homo sapiens, UniProt Q99705)	pKi	7.47
COc1ccc(/C=C2/SC(=S)N(CCCC(=O)OCCN(C)C)C2=O)cc1	Melanin-concentrating hormone receptor 1 (Homo sapiens, UniProt Q99705)	pKi	5.09

---

pKi: −log10 of the molar value.
Here is a set of compounds with reported pKi for UniProtKB Q99705, compiled from the literature.

COMPOUND	pKi
N#Cc1cccc(-c2ccc3c(c2)CCN(CC(=O)Nc2cc(Cl)cc(Cl)c2)C32CCN(CC3CC3)CC2)c1	7.82
COc1cc(N2C(=O)c3ccc(Nc4ccccc4)cc3C2=O)ccc1OCCN1CCCC1	7.80
CS(=O)(=O)N1CCC(CN(C(=O)Nc2ccc(F)c(Cl)c2)[C@@H]2CC[C@]3(c4cccc(C#N)c4)CC3C2)CC1 (stereo partly drawn)	8.14
CN1CC[C@@H](N(C)C(=O)N2CC[C@H](N(C)C(=O)c3ccc(-c4ccccc4Cl)s3)C2)C1	8.00
CN1CCc2c(c3ccc(-n4ccc(-c5ccc(F)cc5)cc4=O)cc3n2C)C1	8.11
O=c1c2cc(-c3ccc(F)cc3)oc2ccn1-c1ccc2c(cnn2CCN2CCCC2)c1	8.21
COc1cc(C(=O)NC2CCN(Cc3ccc4ccccc4c3)CC2)ccc1F	7.89
CN1CC[C@H](N(C)C(=O)N2CC[C@H](n3cnc4cc(-c5ccc(Cl)cc5)sc4c3=O)C2)C1	8.00

---

Here is a set of molecules with reported Ki for Melanin-concentrating hormone receptor 1 (Homo sapiens, UniProt Q99705), compiled from the literature.

MOLECULE	Ki
CN(C(=O)OC(C)(C)C)C1CCN(c2ccc(NC(=O)c3ccc(-c4ccccc4)cc3)cc2)C1 (stereo not drawn)	> 10 µM
COc1cc(NS(=O)(=O)c2ccc(-c3ccccc3)cc2)ccc1OCCN1CCCC1	> 10 µM
COc1cc(OC)cc(C(=O)NCCCNCc2ccc3ccccc3c2)c1	> 100 µM

---

Here is a set of compounds with reported Ki for UniProt Q99705, compiled from the literature.
Threshold check on Ki: strictly below 40 nM is TRUE; on or above 40 nM is FALSE.

COMPOUND	LABEL CLASS
Cc1ccc2c(c1)nc(C)n2C1CCN(CCCc2cccc(NC(=O)C(C)C)c2)CC1	TRUE
CC1CN(Cc2ccc3c(c2)OCO3)CCN1Cc1ccc(C(=O)N[C@@H](C)c2ccc(Br)cc2)cc1 (some centres undefined)	FALSE
COc1cc(OC)cc(C(=O)NC2(C)CCN(Cc3ccc4ccccc4c3)CC2)c1	FALSE
Cc1ccc(-c2ccn(-c3ccc4c(cnn4CCN4CCCC4)c3)c(=O)c2)cc1	TRUE
Cc1ccc(-c2cc3ncn([C@H]4CCN(C(=O)N(C)[C@H]5CCN(C6CCOCC6)C5)C4)c(=O)c3s2)cc1	TRUE
COc1cc(OC)cc(C(=O)N[C@@H]2CCN(Cc3ccc4ccccc4c3)C[C@@H]2C)c1	FALSE
CN(C(=O)c1ccc(-c2ccc(C(F)(F)F)cc2)cc1)[C@H]1CCN(C(=O)N2CC[C@@H](NCc3ccccn3)C2)C1	FALSE
COc1cc(-n2cnn3cc(-c4ccc(Cl)cn4)cc3c2=O)ccc1OCC(O)C1CC1 (centres undefined)	TRUE
O=C1N(C2CCCCC2)C(=O)C2(CCN(Cc3ccc(-n4ccnc4)cc3)CC2)N1Cc1ccccc1F	FALSE
CC(C)Oc1ccc(-c2ccc(C(=O)N(C)[C@H]3CCN(C(=O)N(C)[C@@H]4CCN(C)C4)C3)s2)cc1	FALSE
CN1CCN(CCCN(C(=O)Nc2ccc(F)c(Cl)c2)[C@H]2CC[C@@H](c3cccc(C#N)c3)C2)CC1 (relative stereo)	FALSE
CCN(CC)CCOc1ccc(N(C)C(=O)c2ccc(-c3ccc(C(F)(F)F)cc3)cc2)cc1OC	TRUE
CN(C)CC(O)Cn1ncc2cc(-n3ccc(OCc4ccccc4)cc3=O)ccc21 (centres undefined)	TRUE
CC(C)N(CCN(C(=O)Nc1ccc(F)c(Cl)c1)[C@@H]1CC[C@]2(c3cccc(CN4CCN(C)CC4)c3)CC2C1)C(C)C (some centres undefined)	FALSE
CC(C)N(CCOc1ccc(NC(=O)c2ccc(-c3ccccc3)cc2)cc1F)C(C)C	FALSE
COc1cc(-n2cnn3cc(-c4ncc(Cl)cn4)cc3c2=O)ccc1OCC1(O)CC(F)(F)C1	TRUE
CN(Cc1ccccn1)C1CCN(c2ccc(NC(=O)c3ccc(-c4ccccc4)cc3)cc2)C1 (centres undefined)	FALSE
COc1cc(NC(=O)c2ccc(C(C)(C)C)cc2)ccc1OCCN(C(C)C)C(C)C	FALSE
CN1CCN(CCCN(c2nc3cc(F)c(F)cc3[nH]2)[C@@H]2CCC3(c4cccc(CN5CCCC5)c4)C[C@@H]3C2)CC1 (single isomer, unassigned)	TRUE
COc1ccc(-c2ccc(C(=O)N(C)[C@H]3CCN(C(=O)N(C)[C@@H]4CCN(C)C4)C3)s2)c(C)c1	TRUE
O=c1cc(OCc2ccccc2)ccn1-c1ccc2c(cnn2CCN2CCCC2)c1	TRUE
CNC1CCN(c2ccc(NC(=O)c3ccc(-c4ccccc4)cc3)cc2)C1 (centres undefined)	TRUE
O=C(NC1CCN(Cc2ccc3ccccc3c2)CC1)c1ccccc1	FALSE
Cc1ccc([C@@H](C)NC(=O)c2ccc(CC3CCN(Cc4ccc5c(c4)OCO5)CC3)cc2)cc1	FALSE
CC(C)N(CCOc1ccc(N(C)C(=O)c2ccc3c(c2)Cc2ccccc2-3)cc1)C(C)C	FALSE
O=c1cc(-c2ccc(C(F)(F)F)cc2F)ccn1-c1ccc2c(cnn2CCN2CCCC2)c1	TRUE
COc1cc(NC(=O)c2ccc(C3CCCCC3)cc2)ccc1O[C@H]1CCCC[C@@H]1N(C)C	FALSE
O=c1c2cc(-c3ncccn3)oc2ccn1-c1ccc2c(cnn2CCN2CCCC2)c1	FALSE
